// data source = patent US20240034792A1

biological target: T1, Human PD-1 expressed on CHO-K1 cells (CHO-K1/hPD-1) (human, UniProt Q15116 25-288); assay: FACS blocking of biotin-labeled human PD-L1 binding to CHO-K1-hPD-1 cells
T1 construct: whole, on cells; also called CHO-K1 cells overexpressing human PD-1
T1 sequence (Q15116 25-288): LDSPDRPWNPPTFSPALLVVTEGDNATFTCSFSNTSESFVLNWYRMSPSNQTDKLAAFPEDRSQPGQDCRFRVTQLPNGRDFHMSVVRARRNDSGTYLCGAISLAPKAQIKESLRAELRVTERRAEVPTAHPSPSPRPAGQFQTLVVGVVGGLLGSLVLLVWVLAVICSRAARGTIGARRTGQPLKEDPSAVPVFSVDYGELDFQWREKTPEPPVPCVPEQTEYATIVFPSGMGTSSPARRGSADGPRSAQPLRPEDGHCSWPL
endpoint: Maximum inhibition rate (%)
Give the value, in units of %, as a plain number.

Look over these answered cases.
binder	unitString	Maximum inhibition rate (%)
PR002477 (antibody, human IgG1, V domains shown, Heavy-chain-only antibody (HCAb), human IgG1 Fc; two heavy chains, no light chain; also called R4004P547H9) VH: EVQLVETGGGLIQPGGSLRLSCAASGFNVSSHYMSWVRQAPGKGLEWVSIIHSGGSTYYADSVKGRFTISRDNSKNRLYLQMNSLRAEDTAVYYCARAIAVAEKNGYNYPFNYWGQGTLVTVSS	%	67.5
PR002479 (antibody, human IgG1, V domains shown, Heavy-chain-only antibody (HCAb), human IgG1 Fc; two heavy chains, no light chain; also called R4004P551D6) VH: EVQLVETGGGLIQPGGSLRLSCAASGFNVSSHYMSWVRQAPGKGLEWVSIIHSGGSTYYADSVKGRFTISRDNSKNRLYLQMNSLRAEDTAVYYCARATAVAEENGYNYPFNYWGQGTLVTVSS	%	96.2
PR000675 (antibody, human IgG4 S228P, kappa, V domains shown, Fully human recombinant H2L2 antibody, human IgG4, kappa light chain; also called 4004_19G8F2) VH: EVQLLESGGGLVQPGGSLRLSCVDSGFTFSSYAMTWVRQAPGKGLEWVSGISGSGYSTYYADSVKGRFTISRDNSKKTLYLQMNSLRAEDTAVYYCAELSLDYWGQGTLVTVSS VL: EIVLTQSPATLSLSPGERATLSCRASQSVSRYLAWYQQKPGQAPRLLMHDAANRATGLPARFNGSGSGTDFTLTISSLEPEDFAVYYCQQRNNWPLTFGGGTKVEIKR	%	72
PR000679 (antibody, human IgG4 S228P, kappa, V domains shown, Fully human recombinant H2L2 antibody, human IgG4, kappa light chain; also called 4004_6C11C6) VH: QVQLVQSGTEVKKPGSSVKVSCKASGGTFSSYAISWVRQAPGQGLEWMGGIIPIFDTVSSAQKFQGRVTITADKSTSTAYMELFSLRSEDTAVYYCARSPPYSSNWYQYFQHWGQGTLVTVSS VL: DIQMTQSPSTLSASVGDRVTITCRASQTISIWLAWYQQKPGKAPKLLIYKASSLESGVPSRFSGSGSGTEFTLTISSLQPDDFATYYCQQFNSYWTFGQGTKVEIKR	%	40.2
PR000676 (antibody, human IgG4 S228P, kappa, V domains shown, Fully human recombinant H2L2 antibody, human IgG4, kappa light chain; also called 4004_1A7A1) VH: QIQLVESGGGVVQPGRSLRLSCAASGFTLSSYGMHWVRQAPGKGLEWVAVILSDGSNKYYADSVKGRFTISRDNSKNTLYLQMNSLRAEDTAVYYCADLGGDVWGQGTTVTVSS VL: EIVLTQSPATLSLSPGERATLSCRASQSVSSYLAWYQQKPGQAPRLLIYDASTRATGIPARFSGSGSGTDFTLTISSLEPEDFAVYYCQQRSNWPLTFGGGTKVEIKR	%	76

Now examine the next entry.
Input: Reported Maximum inhibition rate (%), binder PR000674 (antibody, human IgG4 S228P, kappa, V domains shown, Fully human recombinant H2L2 antibody, human IgG4, kappa light chain; also called 4004_12H9C1) VH: QVQLVESGGGVVQPGKSLRLSCTVSGLTFSDNGMHWVRQAPGRGLEWMSVIWYDGSKKYYADSVKGRFTISRDNSKNTLYLQMNNMRVEDTAVYYCATNSDYWGQGTLVTVSS VL: EIVLTQSPATLSLSPGERATLSCRASQSVSSYLAWYQQKPGQAPRLLIYDTSKRATGIPARFSGSGSGTDFTLTISSLEPEDFAVYYCQQHNNWIFTFGPGTKVDIKR : ____
Output: 66.7
